# testProtocol: AUC(0 to infinity) in Sprague-Dawley rat brain treated with risperidone at 1 mg/kg, sc by LC-MS/MS analysis
# Format: ADME, organism-based
# Design: time infinity, dose 1 mg/kg, route subcutaneous
observationType: AUC(0-inf) (ng·h/mL)

[[record]]
compound = "Cc1nc2n(c(=O)c1CCN1CCC(c3noc4cc(F)ccc34)CC1)CCCC2O (stereo unspecified) [PALIPERIDONE]"
valueunit = "ng·h/mL"
reportedresult = 69


* * *

# testProtocol: AUC(0 to infinity) in Sprague-Dawley rat brain at 1 mg/kg, sc by LC-MS/MS analysis
# Assay type: ADME, organism-based
# Set-up: time infinity, dose 1 mg/kg, route subcutaneous
observationType: AUC(0-inf) (ng·h/mL)

[[record]]
recordsmiles = "Cc1nc2n(c(=O)c1CCN1CCC(c3noc4cc(F)ccc34)CC1)CCCC2"
valueunit = "ng·h/mL"
reportedresult = 130

[[record]]
recordsmiles = "CC(C)S(=O)(=O)N[C@H]1CCOC[C@@H]1c1ccc(-c2ccc(C#N)s2)cc1"
valueunit = "ng·h/mL"
reportedresult = 150


These entries and their values trace back to ChEMBL document CHEMBL3526130.
